Molecular target: Luciferin 4-monooxygenase (Photinus pyralis)
Assay: qHTS profiling assay for firefly luciferase inhibitor/activator using purifed enzyme and Km concentrations of substrates (counterscreen for miR-21 project); further: nearly all actives have a fitted effect of over 55% in size; further: potency means the concentration at half of the fitted maximal effect
Details: purified FLuc, luminescence inhibition; series mostly up to 57.5 µM
The campaign covered roughly 360,000 compounds. About 25,000 (6.9%) were called active. Not shown: some 9% with an inconclusive outcome. The list comes from a sample in which actives are over-represented; it also holds close analogues and randomly drawn compounds.
METRIC: Potency

MOLECULE	RECORDED_MEASUREMENT
CC(=O)C1(C)N(O)C(C)(C)C(c2cccs2)=[N+]1[O-] (stereo unspecified)	0.301 µM (active)
CCOc1ccc(NC(=O)CN(C)C(=O)CSc2ccccc2)cc1OCC	inactive
CCN1CCC(N(Cc2ccc(F)cc2)C(=O)Nc2cc(C)ccc2C)CC1	inactive
COc1ccc(/C=C2\SC(=S)N(CCC(=O)Nc3cccc(C(=O)O)c3)C2=O)cc1OC	6.75 µM (active)
CC1(C)C(c2cccs2)=[N+]([O-])C2(CCCCC2=O)N1O (stereo unspecified)	inactive
CCOc1ccc(C2NC(=S)NC3=C2CCc2ccccc23)cc1 (stereo unspecified)	21.3 µM (active)

meta.source: PubChem BioAssay AID588342
